- System: Vero E6 infected with SARS-CoV-2
- Test Name: inhibition of SARS-CoV-2 cytopathic effect; higher = more antiviral protection, active = above 15
- Settings: 1 nM; 48 h
Entries and their inhibition of SARS-CoV-2 cytopathic effect values follow.
Output spec: scalar in %, unitless text.

Observe how each entry below is paired with its result.
O=C(OCC(COC(=O)c1cccnc1)(COC(=O)c1cccnc1)COC(=O)c1cccnc1)c1cccnc1 :: -3.51
Nc1nc(Nc2ccc(S(N)(=O)=O)cc2)nn1C(=O)c1c(F)cccc1F :: 2.48
O=C(c1cn(Cc2cncn2Cc2ccc(Br)cc2)cc1-c1cccc2ccccc12)N1CCOCC1 :: -2.2
CCCCCCc1ccc(O)cc1O.Nc1c2ccccc2nc2ccccc12 :: 1.59
COc1ccc(OC)c2c(=S)c3ccccc3[nH]c12 :: 2.65
O=c1[nH]c(=O)c2ccccc2o1 :: -1.46
NCCc1ccc(O)c(O)c1 :: -0.56
COc1ccc([C@]2(C#N)CC[C@@H](C(=O)O)CC2)cc1OC1CCCC1 :: -1.82
CCCCCCCCCCCCCCCC(=O)OC[C@H](O)[C@H]1OC(=O)C(O)=C1O [L-ascorbyl-6-palmitate] :: 2.02
C[C@@]1(CO)[C@H](O)CC[C@@]2(C)[C@H]1CC[C@H]1C[C@@H]3C[C@@]12CC[C@]3(O)CO :: -5.87

Query block: I'm curious: which inhibition of SARS-CoV-2 cytopathic effect was measured for CCCCCCCCCCCCCCCC(=O)OC[C@H](COP(=O)([O-])OCC[N+](C)(C)C)OC(=O)CCCCCCCCCCCCCCC [colfosceril-palmitate] tested on Vero E6 infected with SARS-CoV-2?
Result block: -7.11

Query block: Moving on to "COc1cnc(NS(=O)(=O)c2ccc(N)cc2)nc1"
Result block: -0.38

Query block: Moving on to "C[C@@H]1C/C=C/C=C/C=C/C=C/[C@H](O[C@@H]2O[C@H](C)[C@@H](O)[C@H](N)[C@@H]2O)C[C@@H]2O[C@](O)(C[C@@H](O)C[C@H]3O[C@@H]3/C=C/C(=O)O1)C[C@H](O)[C@H]2C(=O)O"
Result block: 2.57

Query block: Moving on to NC(=O)c1ccccc1O [salicylamide]
Result block: -0.95

Query block: Moving on to "O=C(O)C1CN(Cc2ccc(-c3nc4cc(Cc5ccccc5F)ccc4s3)c(F)c2)C1"
Result block: 1.34

Query block: Moving on to "COc1cc2c(cc1OC)-c1c/c(=N\c3c(C)cc(C)cc3C)n(C)c(=O)n1CC2"
Result block: 1.9

Query block: Moving on to "O=c1ccn([C@@H]2O[C@H](COP(=O)(O)OP(=O)(O)OP(=O)(O)O)[C@@H](O)[C@H]2O)c(=O)[nH]1"
Result block: -0.655

Query block: Moving on to "CC(C)(C)c1cc(C=C(C#N)C#N)cc(Br)c1O"
Result block: 0.94

###

- System: Vero E6 infected with SARS-CoV-2
- Test Name: SARS-CoV-2 infection rate relative to infected DMSO; higher = more infection, active = 60 or less
- Settings: 24 h
Assay Metric: SARS-CoV-2 infection rate (%)
Output spec: scalar in %, unitless text.

CC1=CC(=C(c2ccc(N)cc2)c2ccc(N)cc2)C=CC1=N [basic-fuchsin] (0.833333 µM) :: 97.5

Query block: I'm curious: which SARS-CoV-2 infection rate was measured for CCc1cc2cc(OC)c(OC)cc2c(Cc2ccccc2)n1 [moxaverine] (10 µM) tested on Vero E6 infected with SARS-CoV-2?
Result block: 86

Query block: Moving on to c1ccc2c(c1)[I+]c1ccccc1-2 [diphenyleneiodonium] (0.833333 µM)
Result block: 108

Query block: Moving on to O=Nc1ccc(O)c2ncccc12 (10 µM)
Result block: 108

Query block: Moving on to Cc1ccccc1C(=O)c1ccc(Nc2ccc(Br)cc2N)cc1Cl (10 µM)
Result block: 102

Query block: Moving on to Cc1nc(C#Cc2ccnc(Cl)c2)c(C)n1-c1ccc(F)cc1 [basimglurant] (10 µM)
Result block: 112

###

- Test system: Vero E6 infected with SARS-CoV-2
- Test Name: inhibition of SARS-CoV-2 cytopathic effect; higher = more antiviral protection, active = above 15
- Settings: 833.33 nM; 48 h
Assay Metric: inhibition of SARS-CoV-2 cytopathic effect

Observe how each entry below is paired with its result.
Cc1nc[nH]c1CCN [4-methylhistamine] :: -2.08% (inactive)
O=P1(NCCCl)OCCCN1CCCl (stereo not given) [ifosfamide] :: 0.22% (inactive)
CC(C)Oc1ccc2c(=O)c3cc(C(=O)O)ccc3oc2c1 :: -1.68% (inactive)

Query block: I'm curious: which inhibition of SARS-CoV-2 cytopathic effect was measured for "O[C@H]1CC[C@H](Nc2ncc3nc(Nc4c(F)cc(F)cc4F)n([C@H]4CCOC4)c3n2)CC1" tested on Vero E6 infected with SARS-CoV-2?
Result block: -0.04% (inactive)

Query block: Moving on to O=C1C[C@@]2(C(=O)N1)C(=O)N(Cc1ccc(Br)cc1F)C(=O)c1cccn12 [ranirestat]
Result block: 3.78% (inactive)

Query block: Moving on to "O=C(CCCCCCCn1cc(-c2cccnc2)nn1)Nc1ccccc1-c1ccccc1"
Result block: -14.7% (inactive)

###

Entries and their inhibition of SARS-CoV-2 cytopathic effect values follow.
- System: Vero E6 infected with SARS-CoV-2
- Test Name: inhibition of SARS-CoV-2 cytopathic effect; higher = more antiviral protection, active = above 15
- Settings: 100 nM; 48 h

Observe how each entry below is paired with its result.
c1ccc2c(Oc3nc(Nc4ccc(N5CCOCC5)cc4)c4ncn(C5CCCCC5)c4n3)cccc2c1 [purmorphamine] :: 0.24% (inactive)
Cc1ccc(C)c([C@H](O)CNC(C)C)c1 [benzenemethanol,-2,5-dimethyl-[[(1-methylethyl)amino]methyl]] :: 0.03% (inactive)
C[C@H](NC[C@H](O)CP(=O)(O)CC1CCCCC1)c1ccc(Cl)c(Cl)c1 :: -1.52% (inactive)

From here, focus on the item given below.
Query block: May I ask what inhibition of SARS-CoV-2 cytopathic effect has been recorded for O=C(O)c1cc(-c2ccc(F)cc2F)ccc1O [diflunisal] ?
Result block: 2.12% (inactive)

###

- System: Vero E6 infected with SARS-CoV-2
- Test Name: inhibition of SARS-CoV-2 cytopathic effect; higher = more antiviral protection, active = above 15
- Settings: 8.33 nM; 48 h
Assay Metric: inhibition of SARS-CoV-2 cytopathic effect

Observe how each entry below is paired with its result.
CCN1CCC[C@H]1CNC(=O)c1c(O)c(Cl)cc(Cl)c1OC [raclopride] :: -4.22% (inactive)
C/C=C(/C(=C/C)c1ccc(O)cc1)c1ccc(O)cc1 :: -0.9% (inactive)
Nc1cc(N2CCCCC2)nc(N)[n+]1[O-] :: 0.28% (inactive)
NC1CCN(c2nc3c(cc2F)c(=O)c(C(=O)O)cn3-c2ccc(F)cc2F)C1 (stereo not given) :: 0.34% (inactive)
O=C(O)CNC(=O)C(CS)Cc1ccccc1 (stereo not given) :: -1.61% (inactive)
Nc1nc(OCc2cc(Br)cs2)c2[nH]cnc2n1 :: 0% (inactive)

Query block: I'm curious: which inhibition of SARS-CoV-2 cytopathic effect was measured for "O=c1n(CCCN2CCN(c3cccc(Cl)c3)CC2)nc2ccccn12" tested on Vero E6 infected with SARS-CoV-2?
Result block: 4.07% (inactive)

Query block: Moving on to "CCCCNNC(=O)c1ccc(Br)cc1"
Result block: 1.2% (inactive)

Query block: Moving on to "CN1C(=O)CN=C(c2ccccc2)c2cc(Cl)ccc21"
Result block: 0.35% (inactive)

Query block: Moving on to "COc1ccc2nc3[nH]nc(C)c3c(NCCOCCO)c2c1"
Result block: -2.01% (inactive)

###

Entries and their inhibition of SARS-CoV-2 cytopathic effect values follow.
- System: Vero E6 infected with SARS-CoV-2
- Test Name: inhibition of SARS-CoV-2 cytopathic effect; higher = more antiviral protection, active = above 15
- Settings: 1 nM; 48 h
Output spec: scalar in %, unitless text.

Observe how each entry below is paired with its result.
CNC(=O)[C@H]1O[C@@H](n2cnc3c(NCc4cccc(I)c4)ncnc32)[C@H](O)[C@@H]1O :: 0.17
CN[C@@H](C)CC1CCCCC1 :: -0.64
COc1cc2c(cc1OC)-c1c(C)c3ccc(OC)c(OC)c3c[n+]1CC2 [dehydrocorydaline] :: -0.53
CCCCCS(=O)(=O)CCCCCCCCCCn1c(-c2ccc(O)cc2)c(C)c2cc(O)ccc21 :: 1.18
COCC[n+]1c2c(n(Cc3cnccn3)c1C)C(=O)c1ccccc1C2=O :: 0.33

Query block: May I ask what inhibition of SARS-CoV-2 cytopathic effect has been recorded for CCCCN(CCCC)CCC(O)c1cc2c(Cl)cc(Cl)cc2c2cc(C(F)(F)F)ccc12 (centres undefined) ?
Result block: -1.32

Query block: Moving on to "CC(=O)SCCC(=O)N1[C@H](C)CCC[C@@H]1C(=O)O"
Result block: -1.78

Query block: Moving on to Cc1onc(O)c1C[C@@H](N)C(=O)O (racemic)
Result block: 0.825

Query block: Moving on to "CC(C)(C)CC(C)(C)c1ccc(OCCOCC[N+](C)(C)Cc2ccccc2)cc1"
Result block: -8.35

Query block: Moving on to "COc1ccc(-c2ccc3c(N4CCOCC4)nc(N4C[C@@H](C)O[C@@H](C)C4)nc3n2)cc1CO"
Result block: 1.75

Query block: Moving on to "O=C(O)CCCc1ccc(N(CCCl)CCCl)cc1"
Result block: -0.23

Query block: Moving on to Cc1cc(Oc2ccc3nc(COc4ccc(CC5SC(=O)NC5=O)cc4)n(C)c3c2)cc(C)c1N (centres undefined)
Result block: -0.56

Query block: Moving on to "Cc1cccc(/C=N/Nc2cc(N3CCOCC3)nc(OCCc3ccccn3)n2)c1"
Result block: 0.81

Query block: Moving on to "C[C@H](CCC(=O)O)[C@H]1CC[C@H]2[C@@H]3[C@H](O)C[C@@H]4C[C@H](O)CC[C@]4(C)[C@H]3C[C@H](O)[C@]12C"
Result block: -0.3

Query block: Moving on to CC(Cc1ccc(O)cc1)NCC(O)c1cc(O)cc(O)c1 (centres undefined)
Result block: 2.01

Query block: Moving on to CCC(C(=O)O)c1ccc(CC(C)C)cc1 (centres undefined)
Result block: -2.32

Query block: Moving on to "COc1cc2c(cc1O)CC[C@@H]1[C@@H]2CC[C@]2(C)[C@@H](O)CC[C@@H]12"
Result block: -3.17

Query block: Moving on to "CCCCCCCCCCCCCCCCCCN(CCCCCCCCCCCCCCCCCC)CCCN(CCO)CCO"
Result block: -9.9

Query block: Moving on to "Cn1nc(-c2cccc(F)c2)n(C)c1=S"
Result block: 3.45

Query block: Moving on to "COC(=O)Nc1nc2cc(C(=O)c3ccc(F)cc3)ccc2[nH]1"
Result block: -1.07

Query block: Moving on to "Cn1ccc2cc3c(cc21)CCN3C(=O)Nc1cccnc1"
Result block: 1.1

Query block: Moving on to O=C(Nc1ccc(-c2ccnc(Nc3ccc(N4CCOCC4)cc3)n2)cc1)C1CCCN1 (centres undefined)
Result block: -1.37

Query block: Moving on to CCCCCCCCCCCCCCCC(=O)OC[C@@H](NC(=O)C(Cl)Cl)[C@H](O)c1ccc([N+](=O)[O-])cc1 [chloramphenicol-palmitate]
Result block: 0.12

Query block: Moving on to Cc1cc2c(OCC(CNC(C)(C)C)OC(=O)c3ccccc3)cccc2[nH]1 (centres undefined)
Result block: -0.9

Query block: Moving on to COC(=O)C1=C(C)NC(C)=C([N+](=O)[O-])[C@@H]1c1ccccc1C(F)(F)F (racemic)
Result block: 2

Query block: Moving on to O=C1NC(O)CCN1[C@@H]1O[C@H](CO)[C@@H](O)[C@H]1O (some centres undefined) [tetrahydrouridine]
Result block: 2.54

This collection of values is drawn from the supplement of paper PMC13380429.
